- assayedTarget: UniProt Q965D5
- assaySummary: Inhibition of Plasmodium falciparum recombinant enoyl ACP reductase expressed in BL21 (DE3) cells
pIC50: −log10 of the molar value.
readoutLabel: pIC50

Record excerpt, results attached:
- COc1ccc(N2C(=O)/C(=C/c3ccc(C=O)cc3)SC2=S)cc1: 5.82
- CCCOc1ccc(/C=C2\SC(=S)N(CCCCCC(=O)O)C2=O)cc1OC: 4.35
- O=C1NC(=S)S/C1=C\c1ccc(-c2ccc(Cl)c(Cl)c2)o1: 6.01
- COc1ccc(/C=C2\SC(=S)N(c3ccc(O)cc3)C2=O)cc1: 5.00
- O=C(O)CCCCCN1C(=O)/C(=C/c2c[nH]c3ccccc23)SC1=S: 4.00

A. COc1ccc(Cl)cc1NC(=O)c1cc(-c2ccc(Cl)s2)nc2ccccc12
B. CN(C)c1ccc(/C=C2\SC(=S)N(c3ccc(O)cc3)C2=O)cc1
Asked: // select label with min value of measured pIC50 from [ A , B ] State your choice using its label.
Given back: A

* * *

Reported IC50 values follow for various compounds
- assayedTarget: Enoyl-acyl-carrier protein reductase (Plasmodium falciparum, UniProt Q965D5)
- Sequence (Q965D5 whole entry): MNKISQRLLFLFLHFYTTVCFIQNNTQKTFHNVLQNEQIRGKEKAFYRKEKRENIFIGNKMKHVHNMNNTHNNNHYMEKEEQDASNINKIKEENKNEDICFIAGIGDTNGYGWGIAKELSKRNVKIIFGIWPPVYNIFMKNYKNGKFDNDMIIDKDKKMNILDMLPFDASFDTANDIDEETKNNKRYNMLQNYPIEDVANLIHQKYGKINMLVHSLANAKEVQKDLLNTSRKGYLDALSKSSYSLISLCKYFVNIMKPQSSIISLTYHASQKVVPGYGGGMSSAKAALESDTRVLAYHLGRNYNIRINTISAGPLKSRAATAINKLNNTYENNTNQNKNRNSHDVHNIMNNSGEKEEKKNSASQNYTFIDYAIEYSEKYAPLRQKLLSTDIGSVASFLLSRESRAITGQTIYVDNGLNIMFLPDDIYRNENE
- assaySummary: Inhibition of Plasmodium falciparum recombinant enoyl ACP reductase expressed in BL21 (DE3) cells

Record excerpt, results attached:
* O=C1/C(=C/c2ccc(-c3cccc(Cl)c3)o2)SC(=S)N1c1cccc(Cl)c1 | > 100 µM
* COc1ccc(N2C(=O)/C(=C/c3c4ccccc4cc4ccccc34)SC2=S)cc1 | > 50 µM

Now for a further compound.
Asked: Report IC50 for CCCCCOc1ccc(/C=C2\SC(=S)N(CCCCCC(=O)O)C2=O)cc1OC tested on Enoyl-acyl-carrier protein reductase (Plasmodium falciparum, UniProt Q965D5).
Given back: > 100 µM
